Target: Acetylcholinesterase (Homo sapiens) (UniProt P22303)
Sequence (P22303 whole entry, looked up): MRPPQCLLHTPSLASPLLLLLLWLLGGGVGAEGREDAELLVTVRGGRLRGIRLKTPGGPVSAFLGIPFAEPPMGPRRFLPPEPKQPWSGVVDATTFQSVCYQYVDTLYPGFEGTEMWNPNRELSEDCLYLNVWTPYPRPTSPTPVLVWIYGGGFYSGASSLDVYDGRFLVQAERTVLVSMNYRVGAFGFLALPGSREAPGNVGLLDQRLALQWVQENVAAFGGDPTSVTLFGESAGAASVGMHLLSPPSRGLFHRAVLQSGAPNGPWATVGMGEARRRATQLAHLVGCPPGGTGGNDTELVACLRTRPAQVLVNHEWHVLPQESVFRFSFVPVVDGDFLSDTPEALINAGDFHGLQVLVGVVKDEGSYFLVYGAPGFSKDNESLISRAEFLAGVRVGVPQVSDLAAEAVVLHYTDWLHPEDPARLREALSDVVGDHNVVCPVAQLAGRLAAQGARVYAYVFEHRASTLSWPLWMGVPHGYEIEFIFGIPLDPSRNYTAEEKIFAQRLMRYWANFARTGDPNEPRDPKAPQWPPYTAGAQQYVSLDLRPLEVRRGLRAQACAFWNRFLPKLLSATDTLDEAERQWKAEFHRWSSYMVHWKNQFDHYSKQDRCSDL
Test Description: Acetylcholinesterase (AChE) small molecule antagonists: enzyme-based qHTS assay (AID 1347397); note: nearly all actives have a fitted effect of over 55% in size
Condition Context: AChE enzyme activity inhibition; series mostly up to 115 µM
The source made the active and inactive calls. Calls come from the whole dose curve.
Quantity: outcome

Solved cases below.
In [3]: df
Out[3]:
                                   compound  quantity  reported_result
0                              Cc1ccc(C)cc1   outcome         inactive
1                    CC(=O)CC(=O)Nc1ccccc1C   outcome         inactive
2                            O=Cc1ccccc1C=O   outcome         inactive
3  S=C([S-])NCCNC(=S)[S-].S=C([S-])NCCNC(=S)[S-].[Mn+2].[Zn+2]   outcome         inactive
4  C=CC(C)(O)CC/C=C(/C)CCC=C(C)C (stereo unspecified)   outcome         inactive
5  CC(=O)O[C@]1(C(C)=O)CC[C@H]2[C@@H]3C[C@H](C)C4=CC(=O)CC[C@]4(C)[C@H]3CC[C@@]21C   outcome         inactive
6  CC(=O)[C@H]1CC[C@H]2[C@@H]3CC=C4C[C@@H](O)CC[C@]4(C)[C@H]3CC[C@]12C   outcome         inactive
7                 Nc1ccc(N=Nc2ccc(N)cc2)cc1   outcome         inactive

Now consider the entry below.
### Prompt Reported outcome, compound Cc1nn(C)c(Oc2ccccc2)c1/C=N/OCc1ccc(C(=O)OC(C)(C)C)cc1 : ____
### Response inactive

---

Test Description: A CellTox Green Cytotoxicity Assay to monitor cytotoxicity in HepG2 cells - 0 hour (AID 1224882); note: nearly all actives have a fitted effect of over 35% in size
Condition Context: CellTox Green fluorescence; series mostly up to 76.8 µM
Active and inactive are the calls of the source. Calls come from the whole dose curve; as a rule, active = well fitted activation curve with a large enough effect in the repeat runs; inconclusive = weak or mixed curves; inactive = flat fitted curve, though single readings scatter.
# valid calls are active, inactive; nothing else

### Prompt What is the recorded call for this compound in the test? Nc1ccc([N+](=O)[O-])cc1
### Response inactive

### Prompt # fetch the recorded call for CCN(CC)C(=O)Cl here
### Response inactive

### Prompt How was COc1ccc(C(c2ccc(OC)cc2)C(Cl)(Cl)Cl)cc1 classified in this test?
### Response inactive

### Prompt Hi team, can someone confirm the assay call for OC(Cc1ccccc1Cl)(Cn1[nH]cnc1=S)C1(Cl)CC1 (configuration not stated) ?
### Response inactive

### Prompt Hi, sorry to bother you, what did the test record for Oc1c(I)cc(I)cc1I ?
### Response inactive

### Prompt What was the test verdict on CC(c1ccccc1)(c1ccc(O)cc1)c1ccc(O)cc1 ?
### Response inactive

### Prompt # outcome recorded in this test, key = COc1cc(OC)c(OC)cc1C=O
### Response inactive

### Prompt Which outcome was assigned to CO/C=C(/C(=O)OC)c1ccccc1Oc1cc(Oc2ccccc2C#N)ncn1 in this test?
### Response inactive

### Prompt Status in this test for Cc1nnc2n1-c1sc(CCc3ccc(CC(C)C)cc3)cc1C(c1ccccc1Cl)=NC2C (configuration not stated) ?
### Response inactive

### Prompt What was the test verdict on N#Cc1cc([N+](=O)[O-])ccc1N ?
### Response inactive

### Prompt Dear colleague, could you share the recorded outcome for O=C1C(I)=CC(=C(c2cc(I)c(O)c(I)c2)c2ccccc2C(=O)O)C=C1I when you have a moment?
### Response inactive

### Prompt Hi team, can someone confirm the assay call for C[C@]12CC[C@@H](O)C[C@@H]1CC[C@@H]1[C@@H]2CC[C@]2(C)C(=O)CC[C@@H]12 ?
### Response inactive

### Prompt What is the recorded call for this compound in the test? O=S(=O)(C(Cl)(Cl)Cl)C(Cl)(Cl)Cl
### Response inactive

### Prompt Could you please tell me the result logged for c1ccc2c(c1)Sc1ccccc1N2CC1CN2CCC1CC2 (configuration not stated) in this assay?
### Response inactive

### Prompt Given OCC(c1ccc(Cl)cc1)c1ccc(Cl)cc1 , state the outcome it received in this test.
### Response inactive

### Prompt Lab log entry: ClC1=C(Cl)[C@]2(Cl)[C@@H]3[C@@H](Cl)[C@H]4O[C@H]4[C@@H]3C1(Cl)C2(Cl)Cl — outcome as called in the assay?
### Response inactive

### Prompt Check the results log: what was the call for O=[N+]([O-])c1c(Cl)c(Cl)cc(Cl)c1Cl ?
### Response inactive

### Prompt Could you check what this test reported for CCOC(=O)C(O)(c1ccc(Cl)cc1)c1ccc(Cl)cc1 ?
### Response inactive

### Prompt Please let me know the test result on file for Cc1cc(C(C)(C)c2ccc(O)c(C)c2)ccc1O .
### Response inactive

### Prompt Can you look up the reported call for Cc1cc(C)c(C(=O)P(=O)(c2ccccc2)c2ccccc2)c(C)c1 for me?
### Response inactive

### Prompt Per the records of this test, what outcome belongs to CNC(=O)Oc1cc(C)c(SC)c(C)c1 ?
### Response inactive

### Prompt // return assay outcome for O=C(Nc1ccccc1-c1ccc(Cl)cc1)c1cccnc1Cl
### Response active
